Data origin: patent US9481648B2

Listing: pIC50 of selected molecules
tested-target: CYP2C9 (Homo sapiens (Human))
Sequence (P11712 whole entry): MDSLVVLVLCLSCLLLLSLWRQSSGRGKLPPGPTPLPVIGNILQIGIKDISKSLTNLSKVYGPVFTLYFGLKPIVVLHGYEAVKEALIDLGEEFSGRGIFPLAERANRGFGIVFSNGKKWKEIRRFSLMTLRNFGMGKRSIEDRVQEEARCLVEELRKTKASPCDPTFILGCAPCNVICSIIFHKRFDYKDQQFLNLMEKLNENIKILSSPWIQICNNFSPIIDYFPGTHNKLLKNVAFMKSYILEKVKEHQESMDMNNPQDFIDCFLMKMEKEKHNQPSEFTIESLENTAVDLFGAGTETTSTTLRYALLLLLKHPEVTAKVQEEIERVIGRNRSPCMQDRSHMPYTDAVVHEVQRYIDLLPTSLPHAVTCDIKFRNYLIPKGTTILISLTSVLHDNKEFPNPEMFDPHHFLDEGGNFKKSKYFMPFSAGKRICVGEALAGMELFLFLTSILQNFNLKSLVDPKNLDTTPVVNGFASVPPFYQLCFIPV
method-notes: CYP2C9 inhibition study
Type: in vitro ADME
setup-conditions: CYP2C9, 30 min preincubation
pIC50: −log10 of the molar value.

structure-string | pIC50
COc1c(NC(=O)Nc2ccc(Oc3ccnc(Nc4ccccc4)c3)c3ccccc23)cc(C(C)(C)C)cc1C(=O)NC1COC1 | < 4.82
COCCOCCOCCOc1cc(Nc2nccc(Oc3ccc(NC(=O)Nc4cc(C(C)(C)C)cc(NS(C)(=O)=O)c4OC)c4ccccc34)n2)cc(OC)c1 | < 4.82
COc1cc(Nc2cc(Oc3ccc(NC(=O)Nc4cc(C(C)(C)C)cc(NS(C)(=O)=O)c4OC)c4ccccc34)ccn2)cc(C(=O)NCCN2CCOCC2)c1 | < 4.89
